Form field: remaining at 1 h (one value per entry).
# protocol_summary: Metabolic stability in mouse kidney assessed as parent compound remaining measured after 1 hrs by UPLC-MS analysis
# Type: ADME, tissue-based
# measurement_setup: read-out: Stability

| smiles_record | remaining at 1 h / % |
| --- | --- |
| CO[C@@H](CNC(=O)[C@H](NC(=O)[C@H](O)[C@H](C)O)[C@H](O)c1cncn1C)[C@H](O)[C@H](O)C(=O)N(C)[C@@H](Cc1ccccc1)C(=O)NCC(=O)N[C@H](C(=O)N[C@@H](CO)C(=O)N[C@H](C(=O)N[C@H](C(=O)N[C@@H](CO)C(=O)N[C@@H](CN)C(=O)NCc1cc(=O)c(O)cn1O)C(C)(C)C)C(C)(C)O)C(C)(C)O | 93 |
| CO[C@@H](CNC(=O)[C@H](NC(=O)[C@H](O)[C@H](C)O)[C@H](O)c1cncn1C)[C@H](O)[C@H](O)C(=O)N(C)[C@@H](Cc1ccccc1)C(=O)N[C@@H](C)C(=O)N[C@H](C(=O)N[C@@H](CO)C(=O)N[C@H](C(=O)N[C@H](C(=O)N[C@@H](CO)C(=O)NCc1cc(=O)c(O)cn1O)C(C)(C)C)C(C)(C)O)C(C)(C)O | 85 |
| CO[C@@H](CNC(=O)[C@H](NC(=O)[C@H](O)[C@H](C)O)[C@H](O)c1cncn1C)[C@H](O)[C@H](O)C(=O)N(C)[C@@H](Cc1ccc(F)cc1)C(=O)NCC(=O)N[C@H](C(=O)N[C@@H](CO)C(=O)N[C@H](C(=O)N[C@H](C(=O)N[C@@H](CCC(=O)NCc1cc(=O)c(O)cn1O)C(=O)O)C(C)(C)C)C(C)(C)O)C(C)(C)O | 92 |

Source listed as ChEMBL document CHEMBL5356971.
